- Tested on: Liver microsome
- protocol: Prodrug conversion in rat liver microsomes assessed as half life
assay-metric: t1/2 (min)

P. CCOc1cc(NC(=O)C2(NC(=O)c3ccc4c(C5CCCC5)c(-c5ncc(Cl)cn5)n(C)c4c3)CCC2)ccc1/C=C/C(=O)OCC(=O)N1CCCC1
Q. CCOc1cc(NC(=O)C2(NC(=O)c3ccc4c(C5CCCC5)c(-c5ncc(Cl)cn5)n(C)c4c3)CCC2)ccc1/C=C/C(=O)OCC(N)=O
R. CCOc1cc(NC(=O)C2(NC(=O)c3ccc4c(C5CCCC5)c(-c5ncc(Cl)cn5)n(C)c4c3)CCC2)ccc1/C=C/C(=O)OCC(=O)OCc1ccccc1
S. CCOc1cc(NC(=O)C2(NC(=O)c3ccc4c(C5CCCC5)c(-c5ncc(Cl)cn5)n(C)c4c3)CCC2)ccc1/C=C/C(=O)OCOP(=O)(O)O
Challenge: Write the entries in order, lowest recorded t1/2 first. Lab note: record answer as labels in requested order.
Response given: S, Q, P, R

a. CCOc1cc(NC(=O)C2(NC(=O)c3ccc4c(C5CCCC5)c(-c5ncc(Cl)cn5)n(C)c4c3)CCC2)ccc1/C=C/C(=O)OCC[N+](C)(C)C.[Br-]
b. CCOc1cc(NC(=O)C2(NC(=O)c3ccc4c(C5CCCC5)c(-c5ncc(Cl)cn5)n(C)c4c3)CCC2)ccc1/C=C/C(=O)OCC(=O)N1CCN(C)CC1
Challenge: Look at a and b . Which one has the lower recorded t1/2 number? State the label of the item chosen.
Response given: b
(b: 9 min, a: 104 min)

###

- System: Plasma
- protocol: Prodrug conversion in rat plasma assessed as half life
- Assay type: ADME, cell-free
assay-metric: t1/2 (h)

Field: example entries. Status: answers known.
CCOc1cc(NC(=O)C2(NC(=O)c3ccc4c(C5CCCC5)c(-c5ncc(Cl)cn5)n(C)c4c3)CCC2)ccc1/C=C/C(=O)OCCN(C)C: 1.4
CCOc1cc(NC(=O)C2(NC(=O)c3ccc4c(C5CCCC5)c(-c5ncc(Cl)cn5)n(C)c4c3)CCC2)ccc1/C=C/C(=O)OCC(Cl)(Cl)Cl: 1.3
CCOc1cc(NC(=O)C2(NC(=O)c3ccc4c(C5CCCC5)c(-c5ncc(Cl)cn5)n(C)c4c3)CCC2)ccc1/C=C/C(=O)OCC(=O)OCc1ccccc1: 6.6

P. CCOc1cc(NC(=O)C2(NC(=O)c3ccc4c(C5CCCC5)c(-c5ncc(Cl)cn5)n(C)c4c3)CCC2)ccc1/C=C/C(=O)OCCC(C)C
Q. CCOC(=O)/C=C/c1ccc(NC(=O)C2(NC(=O)c3ccc4c(C5CCCC5)c(-c5ncc(Cl)cn5)n(C)c4c3)CCC2)cc1OCC
R. CCOc1cc(NC(=O)C2(NC(=O)c3ccc4c(C5CCCC5)c(-c5ncc(Cl)cn5)n(C)c4c3)CCC2)ccc1/C=C/C(=O)OCC(=O)N1CCOCC1
Challenge: In this exercise, place the 3 compounds in ascending sequence of their recorded t1/2. // rank by listing labels in the order requested
Response given: R, Q, P
(R: 1.83 h, Q: 8.18 h, P: 18.02 h)

###

- protocol: AUC in dog at 10 mg/kg, po using 10.6% PEG400, 5.4% Cremophor EL, 2.6% Labrasol, 1.4% Capmul MCM in water (80%) vehicle
- Format: ADME, organism-based, Canis lupus familiaris
- Design: dose 10 mg/kg, route oral
- setup-conditions: plasma
assay-metric: AUC (µM·h)
# number only, unit µM·h dropped from output

The reported AUC of the compound CCOc1cc(NC(=O)C2(NC(=O)c3ccc4c(C5CCCC5)c(-c5ncc(Cl)cn5)n(C)c4c3)CCC2)ccc1/C=C/C(=O)OCC(=O)N(C)C was 0.69
